The following compounds are shown together with reported growth inhibition values.
# Assay notes: Restrictive medium S. cerevisiae growth inhibition, OD615, pilot screen of yeast lifespan reduction project, restrictive growth control (AID 706);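 also: modified DeaD lifespan yeast strain shifted to restrictive glucose medium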
# Conditions: OD615, 48 h, at 10 µM, stronger effect = higher value
Assay readout: growth inhibition (%)

>>> data_value("O=C(COc1ccc(S(=O)(=O)NC2CCCCC2)cc1)N1CCN(c2ccc(F)cc2)CC1")
-0.445
>>> data_value("O=C(Cn1cc2c(n1)CCCCC2)NCc1ccccn1")
-16.1
>>> data_value("COc1ccccc1-c1c(C#N)c(SCC(=O)N2CCCC2)nc(C)c1C(N)=O")
-7.78
>>> data_value("Cc1ccc(N(CC(=O)NCc2ccco2)S(=O)(=O)c2ccccc2)cc1")
-7.57
>>> data_value("Cc1ccc(C)c(S(=O)(=O)Nc2ccccc2C(=O)Nc2cc(C)on2)c1")
-4.75
>>> data_value("CCCSc1nc2c(c(=O)n1CC)SC(C)C2 (stereo not drawn)")
-13
>>> data_value("Cc1cc(Cl)ccc1NC(=O)CSc1nnc(-c2ccncc2)n1Cc1ccco1")
25
>>> data_value("CCOc1ccccc1Nc1nc2ccccc2n2cnnc12")
-2.87
>>> data_value("CC1CN(C(=O)c2cc3ccccc3oc2=O)CC(C)O1 (stereo not drawn)")
-3.64
>>> data_value("Clc1ccccc1N1CCN(c2ncnc3nc[nH]c23)CC1")
-4.18
>>> data_value("CC12CN3CC(C)(CN(C1)C3c1ccc(Br)cc1)C2=O (stereo not drawn)")
3.54
>>> data_value("Cc1ccc(NC(=O)C2C3C=CC4(CN(Cc5cccnc5)C(=O)C24)O3)cc1F (stereo not drawn)")
-0.595
>>> data_value("CCN(CC)S(=O)(=O)c1cc(Br)ccc1OC")
-11.1
>>> data_value("CS(=O)(=O)Nc1ccccc1Oc1ccccc1")
2.56
>>> data_value("CCn1c(C2CC(=O)N(c3ccc(C)c(C)c3)C2)nc2ccccc21 (stereo not drawn)")
1.06
>>> data_value("COC(=O)c1ccc(N2C(=O)CC(Sc3n[nH]c(C)n3)C2=O)cc1 (stereo not drawn)")
19
>>> data_value("C=CCn1cc(C(=O)NCCCOC)c(=O)c2cc(S(=O)(=O)N3CCC(C)CC3)ccc21")
-19.6
>>> data_value("COc1ccc(NC(=O)N2CCC(c3ccccc3)C2)c(OC)c1 (stereo not drawn)")
9.96
>>> data_value("COc1ccc(OC)c2c1sc(=NC(=O)C(C)C)n2C")
17.4
>>> data_value("CCOc1ccc(CC(=O)NCc2cn3c(C)csc3n2)cc1")
12.6
>>> data_value("COc1cccc(N2CCN(C(=O)c3ccc4nc(N5CCCCC5)sc4c3)CC2)c1")
3.63
>>> data_value("CCOC(=O)N1CCN(C(=O)CS(=O)(=O)c2cn(Cc3ccccc3C)c3ccccc23)CC1")
-6
>>> data_value("O=C(NC1CC1)c1ccc(CS(=O)(=O)c2c(Cl)cccc2Cl)o1")
-6.65

---

Overview of recorded viability for various compounds
# Assay notes: growth inhibitors of H69AR lung tumor, primary screen, human, duplicate replicates (AID 580);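 also: 100% = mean luminescence of untreated wells and 0% = no signal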
# Conditions: H69AR lung tumor cells viability, ATP luminescence, 72 h; at 10 µM; stronger effect = lower value
Assay readout: viability (%)

>>> data_value("CC(=O)C1=C(O)C(=O)N(Cc2cccnc2)C1c1ccccc1 (stereo unspecified)")
105
>>> data_value("COc1ccc(Cl)cc1N1CC(c2nc3ccccc3[nH]2)CC1=O (stereo unspecified)")
104
>>> data_value("O=c1n(CCCN2CCN(c3cccc(Cl)c3)CC2)nc2ccccn12")
87.3
>>> data_value("CC(C)(C)NC[C@H](O)COc1nsnc1N1CCOCC1")
106
>>> data_value("O=C(COc1ccc(Cl)cc1)NCc1nnc(SCC(=O)Nc2ccc3c(c2)OCCO3)o1")
97.3
>>> data_value("COCCCNC(=O)c1ccccc1NS(=O)(=O)c1ccc(C)cc1")
101
>>> data_value("O=C(CS(=O)(=O)c1cn(Cc2ccc(Cl)cc2)c2ccccc12)N1CCCC1")
79.3
>>> data_value("S=c1[nH]nc(-c2cccc(Br)c2)o1")
96.1
>>> data_value("O=C(N1CCN(Cc2ccccc2)CC1)C12CC3CC(CC(C3)C1)C2")
83.4
>>> data_value("CCOC(=O)c1ccc(NC(=O)CCc2nc(-c3cccc(C)c3)no2)cc1")
86.2
>>> data_value("COc1ccc(NC(=O)CSc2nnc(-c3ccccc3C)n2C)cc1")
100
